METHOD: Metabolic stability in human liver microsomes at 50 uM after 60 mins by LC-UV-MS analysis in the presence of NADPH-generating system
Format: ADME
STUDY CONDITIONS: read-out: Stability
Quick list: remaining at 1 h, 50 µM per entry.
Your answer is read as %, so omit the unit and give the number.

molecule="CCS(=O)(=O)N1CCN(c2ccc(NC(=O)OC(Cn3ccnc3)c3ccc(F)cc3)cc2)CC1 (racemic)" assay_result=99

Below: the item to evaluate.
molecule O=C(Nc1ccc(N2CCN(C(=O)c3ccco3)CC2)cc1)OC(Cn1ccnc1)c1ccc(F)cc1 (racemic) , remaining at 1 h, 50 µM observed: 99
